These entries and their values trace back to patent US10738094B2.

target.desc: HLA-A*02:01 (Homo sapiens, UniProt P04439, D140Y/D185E/D98H/E176V/E277Q/G131W/G231S/I119V/I121R/I166T/I218V/L300P/L318F/N151K/N90K/P208A/P217A/Q86G/Q94H/R138H/R169H/T345S)
assay: MHC binding assay (UV-ligand exchange, beta2m ELISA)
conditions.used: binding to HLA-A*02:01 ranged by peptide exchange yield (UV-ligand exchange, β2m ELISA)
endpoint: Peptide exchange

substance="333 (FLPDANSSV; listed as Homo sapiens) [compound 333]" measured="“++” (≥20% = ++)"
substance="149 (NLLELFVQL; listed as Homo sapiens) [compound 149]" measured="“+++” (≥50 = +++)"
substance="135 (ALSEVDFQL; listed as Homo sapiens) [compound 135]" measured="“+++” (≥50 = +++)"
substance="193 (QLLDADGFLNV; listed as Homo sapiens) [compound 193]" measured="“+++” (≥50 = +++)"

Attention now turns to another entry.
Summary for this substance, 9 (GAAKDLPGV; listed as Homo sapiens) [compound 9] : Peptide exchange is “++” (≥20% = ++)

----------
target.desc: HLA-A*02:01 (Homo sapiens, UniProt P04439, D140Y/D185E/D98H/E176V/E277Q/G131W/G231S/I119V/I121R/I166T/I218V/L300P/L318F/N151K/N90K/P208A/P217A/Q86G/Q94H/R138H/R169H/T345S)
assay: MHC binding assay (UV-ligand exchange, beta2m ELISA)
conditions.used: binding to HLA-A*02:01 ranged by peptide exchange yield (UV-ligand exchange, β2m ELISA)
endpoint: Peptide exchange

The following substances have reported results that may help.
substance="499 (KIFDIDEAEEGV; listed as Homo sapiens) [compound 499]" measured="“++” (≥20% = ++)"
substance="466 (VLIANLEKL; listed as Homo sapiens) [compound 466]" measured="“++++” (≥75% = ++++)"
substance="490 (FLLQHVQEL; listed as Homo sapiens) [compound 490]" measured="“+++” (≥50 = +++)"
substance="95 (SVIPQIQKV; listed as Homo sapiens) [compound 95]" measured="“+++” (≥50 = +++)"
substance="243 (LLLNELPSV; listed as Homo sapiens) [compound 243]" measured="“+++” (≥50 = +++)"

Summary for this substance, 611 (YLLDDGTLVV; listed as Homo sapiens) [compound 611] : Peptide exchange is “++++” (≥75% = ++++)

----------
target.desc: HLA-A*02:01 (Homo sapiens, UniProt P04439, D140Y/D185E/D98H/E176V/E277Q/G131W/G231S/I119V/I121R/I166T/I218V/L300P/L318F/N151K/N90K/P208A/P217A/Q86G/Q94H/R138H/R169H/T345S)
assay: MHC binding assay (UV-ligand exchange, beta2m ELISA)
conditions.used: binding to HLA-A*02:01 ranged by peptide exchange yield (UV-ligand exchange, β2m ELISA)
endpoint: Peptide exchange

The following substances have reported results that may help.
substance="332 (YLISELEAA; listed as Homo sapiens) [compound 332]" measured="“+++” (≥50 = +++)"
substance="434 (KVSNSGITRV; listed as Homo sapiens) [compound 434]" measured="“++” (≥20% = ++)"
substance="97 (SLINGSFLV; listed as Homo sapiens) [compound 97]" measured="“+++” (≥50 = +++)"
substance="518 (KLNAEVACV; listed as Homo sapiens) [compound 518]" measured="“+++” (≥50 = +++)"
substance="168 (KILDADIQL; listed as Homo sapiens) [compound 168]" measured="“++++” (≥75% = ++++)"
substance="266 (KITDTLIHL; listed as Homo sapiens) [compound 266]" measured="“+++” (≥50 = +++)"
substance="605 (KLYEAVPQL; listed as Homo sapiens) [compound 605]" measured="“+++” (≥50 = +++)"
substance="4 (GIMEHITKI; listed as Homo sapiens) [compound 4]" measured="“++++” (≥75% = ++++)"
substance="75 (GLLEVMVNL; listed as Homo sapiens) [compound 75]" measured="“+++” (≥50 = +++)"
substance="40 (TLLVKVFSV; listed as Homo sapiens) [compound 40]" measured="“+++” (≥50 = +++)"

Summary for this substance, 556 (FLTDLEDLTL; listed as Homo sapiens) [compound 556] : Peptide exchange is “+++” (≥50 = +++)

Summary for this substance, 256 (FLPPEHTIVYI; listed as Homo sapiens) [compound 256] : Peptide exchange is “+++” (≥50 = +++)

Summary for this substance, 91 (IMQDFPAEIFL; listed as Homo sapiens) [compound 91] : Peptide exchange is “++++” (≥75% = ++++)

Summary for this substance, 231 (FLSPQQPPLLL; listed as Homo sapiens) [compound 231] : Peptide exchange is “++” (≥20% = ++)

Summary for this substance, 70 (GLLDYPVGV; listed as Homo sapiens) [compound 70] : Peptide exchange is “+++” (≥50 = +++)

----------
target.desc: HLA-A*02:01 (Homo sapiens, UniProt P04439, D140Y/D185E/D98H/E176V/E277Q/G131W/G231S/I119V/I121R/I166T/I218V/L300P/L318F/N151K/N90K/P208A/P217A/Q86G/Q94H/R138H/R169H/T345S)
assay: MHC binding assay (UV-ligand exchange, beta2m ELISA)
conditions.used: binding to HLA-A*02:01 ranged by peptide exchange yield (UV-ligand exchange, β2m ELISA)
Description: Candidate peptides for T cell based therapies according to the present invention were further tested for their MHC binding capacity (affinity). The individual peptide-MHC complexes were produced by UV-ligand exchange, where a UV-sensitive peptide is cleaved upon UV-irradiation, and exchanged with the peptide of interest as analyzed. Only peptide candidates that can effectively bind and stabilize the peptide-receptive MHC molecules prevent dissociation of the MHC complexes. […]
endpoint: Peptide exchange

substance="276 (ALFTFSPLTV; listed as Homo sapiens) [compound 276]" measured="“+++” (≥50 = +++)"
substance="512 (SLSEIVPCL; listed as Homo sapiens) [compound 512]" measured="“+++” (≥50 = +++)"
substance="356 (KLLGKLPEL; listed as Homo sapiens) [compound 356]" measured="“+++” (≥50 = +++)"

----------
target.desc: HLA-A*02:01 (Homo sapiens, UniProt P04439, D140Y/D185E/D98H/E176V/E277Q/G131W/G231S/I119V/I121R/I166T/I218V/L300P/L318F/N151K/N90K/P208A/P217A/Q86G/Q94H/R138H/R169H/T345S)
assay: MHC binding assay (UV-ligand exchange, beta2m ELISA)
conditions.used: binding to HLA-A*02:01 ranged by peptide exchange yield (UV-ligand exchange, β2m ELISA)
endpoint: Peptide exchange

substance="188 (GLFPVTPEAV; listed as Homo sapiens) [compound 188]" measured="“+++” (≥50 = +++)"
substance="462 (KLAKQPETV; listed as Homo sapiens) [compound 462]" measured="“+++” (≥50 = +++)"
substance="403 (KLYDRILRV; listed as Homo sapiens) [compound 403]" measured="“++” (≥20% = ++)"
substance="601 (SAFPFPVTV; listed as Homo sapiens) [compound 601]" measured="“+++” (≥50 = +++)"
substance="219 (KLSDIGITV; listed as Homo sapiens) [compound 219]" measured="“+++” (≥50 = +++)"

Summary for this substance, 272 (ALGNTVPAV; listed as Homo sapiens) [compound 272] : Peptide exchange is “+++” (≥50 = +++)

Summary for this substance, 30 (LILDWVPYI; listed as Homo sapiens) [compound 30] : Peptide exchange is “+++” (≥50 = +++)

Summary for this substance, 191 (LLQEGQALEYV; listed as Homo sapiens) [compound 191] : Peptide exchange is “++” (≥20% = ++)

Summary for this substance, 326 (FLPEALDFV; listed as Homo sapiens) [compound 326] : Peptide exchange is “+++” (≥50 = +++)

----------
target.desc: HLA-A*02:01 (Homo sapiens, UniProt P04439, D140Y/D185E/D98H/E176V/E277Q/G131W/G231S/I119V/I121R/I166T/I218V/L300P/L318F/N151K/N90K/P208A/P217A/Q86G/Q94H/R138H/R169H/T345S)
assay: MHC binding assay (UV-ligand exchange, beta2m ELISA)
conditions.used: binding to HLA-A*02:01 ranged by peptide exchange yield (UV-ligand exchange, β2m ELISA)
endpoint: Peptide exchange

substance="33 (VLLSLLEKV; listed as Homo sapiens) [compound 33]" endpoint="Peptide exchange" measured="“++” (≥20% = ++)"
substance="568 (TLYDIAHTPGV; listed as Homo sapiens) [compound 568]" endpoint="Peptide exchange" measured="“++++” (≥75% = ++++)"
substance="583 (ILANDGVLLAA; listed as Homo sapiens) [compound 583]" endpoint="Peptide exchange" measured="“+++” (≥50 = +++)"
substance="27 (ILADIVISA; listed as Homo sapiens) [compound 27]" endpoint="Peptide exchange" measured="“+++” (≥50 = +++)"
substance="440 (ALADGVTMQV; listed as Homo sapiens) [compound 440]" endpoint="Peptide exchange" measured="“++” (≥20% = ++)"

Summary for this substance, 481 (GLIEDYEALL; listed as Homo sapiens) [compound 481] : Peptide exchange is “+++” (≥50 = +++)

Summary for this substance, 362 (TLYGLSVLL; listed as Homo sapiens) [compound 362] : Peptide exchange is “+++” (≥50 = +++)

Summary for this substance, 373 (SLLEDKGLAEV; listed as Homo sapiens) [compound 373] : Peptide exchange is “++” (≥20% = ++)

Summary for this substance, 196 (YLYSVEIKL; listed as Homo sapiens) [compound 196] : Peptide exchange is “++++” (≥75% = ++++)
